# ASSAY NAME: Pharmacokinetics in patients
# Assay type: in vivo
# CONDITIONS USED: both sexes, plasma; Human (M/F), 0.135 mg/kg (Recommended Dose 5 mg/m2), 3-h intravenous infusion; read-out: Vdss
METRIC: Vd

Would you kindly share the measured Vd for `CC[C@H](C)[C@H]1NC(=O)[C@@H](NC(=O)[C@@H](CC(C)C)N(C)C(=O)[C@@H]2CCCN2C(=O)C(C)=O)[C@@H](C)OC(=O)[C@H](Cc2ccc(OC)cc2)N(C)C(=O)[C@@H]2CCCN2C(=O)[C@H](CC(C)C)NC(=O)[C@@H](C)C(=O)[C@H](C(C)C)OC(=O)C[C@@H]1O` ? 29 to 33 L/kg
